- Test system: Salmonella enterica
- test.description: Antibacterial activity against acrEF-deficient Salmonella enterica NKS176 by CLSI method
- Type: functional
Give measured MIC for each item. Keep answers brief.
Numbers only, in µg/mL.

A selection of reference data follows.
mol.smiles: Cn1nnnc1SCC1=C(C(=O)O)N2C(=O)[C@@H](NC(=O)[C@H](O)c3ccccc3)[C@H]2SC1
unit.symbol: µg/mL
MIC: 0.5
--
mol.smiles: Cc1onc(-c2ccccc2Cl)c1C(=O)N[C@@H]1C(=O)N2[C@@H]1SC(C)(C)[C@@H]2C(=O)O
unit.symbol: µg/mL
MIC: 512

**Q:** Need MIC, item `Cc1onc(-c2ccccc2)c1C(=O)N[C@@H]1C(=O)N2[C@@H]1SC(C)(C)[C@@H]2C(=O)O`
**A:** 512

====

Consider the following compounds; for each one, report its MIC.
- Tested on: Salmonella enterica
- test.description: Antibacterial activity against Salmonella enterica ATCC 14028 by CLSI method
- Type: functional
Give bare numbers, in µg/mL.

Consider the following illustrative entries.
compound: Cc1onc(-c2ccccc2Cl)c1C(=O)N[C@@H]1C(=O)N2[C@@H]1SC(C)(C)[C@@H]2C(=O)O [CLOXACILLIN]
system: Salmonella enterica
MIC (µg/mL): 512
--
compound: Cn1nnnc1SCC1=C(C(=O)O)N2C(=O)[C@@H](NC(=O)[C@H](O)c3ccccc3)[C@H]2SC1 [CEFAMANDOLE]
system: Salmonella enterica
MIC (µg/mL): 1

// next item, MIC requested
**Q:** Missing value: MIC, Salmonella enterica, entry Cc1onc(-c2ccccc2)c1C(=O)N[C@@H]1C(=O)N2[C@@H]1SC(C)(C)[C@@H]2C(=O)O [OXACILLIN] . Fill in?
**A:** 512

====

- Test system: Salmonella enterica
- test.description: Antibacterial activity against acrB-deficient Salmonella enterica NKS416 harboring acrEF, hns gene by CLSI method
- Type: functional
quantity: MIC
Just so you know, I need the unit written after the number.

# annotated cases, reported MIC shown
molecule: Cc1onc(-c2ccccc2)c1C(=O)N[C@@H]1C(=O)N2[C@@H]1SC(C)(C)[C@@H]2C(=O)O [OXACILLIN]
MIC: 1 µg/mL
//
molecule: CCOc1ccc2ccccc2c1C(=O)N[C@@H]1C(=O)N2[C@@H]1SC(C)(C)[C@@H]2C(=O)O [NAFCILLIN]
MIC: 4 µg/mL
//
molecule: Cc1onc(-c2ccccc2Cl)c1C(=O)N[C@@H]1C(=O)N2[C@@H]1SC(C)(C)[C@@H]2C(=O)O [CLOXACILLIN]
MIC: 4 µg/mL
//
molecule: Cn1nnnc1SCC1=C(C(=O)O)N2C(=O)[C@@H](NC(=O)[C@H](O)c3ccccc3)[C@H]2SC1 [CEFAMANDOLE]
MIC: 0.063 µg/mL
//
molecule: CN(C)c1ccc2nc3ccc(N(C)C)cc3[s+]c2c1.[Cl-] [METHYLENE BLUE ANHYDROUS]
MIC: 16 µg/mL

Below: the item to evaluate.
**Q:** So what does the record say about MIC for CC/N=c1\cc2oc3cc(NCC)c(C)cc3c(-c3ccccc3C(=O)OCC)c-2cc1C.Cl [RHODAMINE 6G HYDROCHLORIDE] ?
**A:** 8 µg/mL

====

- Tested on: Salmonella enterica
- test.description: Antibacterial activity against acrB-deficient Salmonella enterica NKS422 harboring acrEF gene by CLSI method
- Format: functional
quantity: MIC
Returns: string containing the number followed by the unit.

Examples from the recorded data:
compound: CN(C)c1ccc2nc3ccc(N(C)C)cc3[s+]c2c1.[Cl-] [METHYLENE BLUE ANHYDROUS]
MIC: 16 µg/mL
//
compound: CCOc1ccc2ccccc2c1C(=O)N[C@@H]1C(=O)N2[C@@H]1SC(C)(C)[C@@H]2C(=O)O
MIC: 4 µg/mL
//
compound: Cn1nnnc1SCC1=C(C(=O)O)N2C(=O)[C@@H](NC(=O)[C@H](O)c3ccccc3)[C@H]2SC1
MIC: 0.063 µg/mL

Below is a list of compounds. For each, state its recorded MIC.
1. Cc1onc(-c2ccccc2Cl)c1C(=O)N[C@@H]1C(=O)N2[C@@H]1SC(C)(C)[C@@H]2C(=O)O
2. Cc1onc(-c2ccccc2)c1C(=O)N[C@@H]1C(=O)N2[C@@H]1SC(C)(C)[C@@H]2C(=O)O
3. CC/N=c1\cc2oc3cc(NCC)c(C)cc3c(-c3ccccc3C(=O)OCC)c-2cc1C.Cl [RHODAMINE 6G HYDROCHLORIDE]

**A:**
4 µg/mL
1 µg/mL
8 µg/mL
